# target under test: rat Fatty Acid Amide Hydrolase (FAAH) (Rattus norvegicus (Rat))
# assay: FAAH in vitro fluorescence assay (AAMCA hydrolysis), rat enzyme
# Type: biochemical
# assay context: rat FAAH; 100 nM (tier I)
property measured: rFAAH % inhibition at 100 nM

molecule="Cc1ccc(C(=O)NC2CCC(=Cc3cccc(Oc4ccc(C(F)(F)F)cn4)c3)CC2)c(C)n1 (stereo not shown) [Example 2.A-37]" result="No inhibition at 100 nM"
molecule="Cc1nnc(C(=O)NC2CCC(=Cc3cccc(Oc4ccc(C(F)(F)F)cn4)c3)CC2)o1 (stereo not shown) [Example 2.A-20]" result="No inhibition at 100 nM"
molecule="Cc1ncccc1C(=O)NC1CCC(=Cc2cccc(Oc3ccc(C(F)(F)F)cn3)c2)CC1 (stereo not shown) [Example 2.A-28]" result="No inhibition at 100 nM"

###

# target under test: UniProt P97612
# assay: FAAH in vitro fluorescence assay (AAMCA hydrolysis), rat enzyme
# Type: biochemical
# assay context: rat FAAH; read-out: rFAAH IC50
pIC50: −log10 of the molar value.
This section presents compounds with their documented pIC50 values.
property measured: pIC50

compound="O=C(Nc1ncc(Cl)s1)C1CCC(=Cc2cccc(Oc3ccc(C(F)(F)F)cn3)c2)CC1 (stereo not drawn)" numeric_readout=7.22
compound="O=C(NC1CCC(=Cc2cccc(Oc3ccc(C(F)(F)F)cn3)c2)CC1)c1c[nH]nc1C(F)(F)F (single isomer, unassigned; (-)) [Example 20.A-8]" numeric_readout=7.52
compound="CCc1ccc(C(=O)NC2CCC(=Cc3cccc(Oc4ccc(C(F)(F)F)cn4)c3)CC2)cn1 (stereo not drawn)" numeric_readout=7.74
compound="CC(CO)Nc1ccc(C(=O)NC2CCC(=Cc3cccc(Oc4ccc(C(F)(F)F)cn4)c3)CC2)cn1 (stereo not drawn)" numeric_readout=7.49
compound="Cc1cncc(C(=O)NC2CCC(=Cc3cccc(Oc4ccc(C(F)(F)F)cn4)c3)CC2)c1 (stereo not drawn)" numeric_readout=7.85
compound="O=C(NC1CCC(=Cc2cccc(Oc3ccc(C(F)(F)F)cn3)c2)CC1)c1ccc(-n2cc(Cl)cn2)nc1 (stereo not drawn)" numeric_readout=7.68
compound="O=C(NC1CCC(=Cc2cccc(Oc3ccc(C(F)(F)F)cn3)c2)CC1)c1ccc(N2CCCC2)nc1 (stereo not drawn)" numeric_readout=7.55
compound="O=C(NC1CCC(=Cc2cccc(Oc3ccc(C(F)(F)F)cn3)c2)CC1)c1cc[nH]n1 (stereo not drawn)" numeric_readout=6.38
compound="Cc1ccn(-c2ccc(C(=O)NC3CCC(=Cc4cccc(Oc5ccc(C(F)(F)F)cn5)c4)CC3)cn2)n1 (stereo not drawn)" numeric_readout=7.66
compound="CCOc1ccc(C(=O)NC2CCC(=Cc3cccc(Oc4ccc(C(F)(F)F)cn4)c3)CC2)cn1 (stereo not drawn)" numeric_readout=8.10
compound="O=C(NC1CCC(=Cc2cccc(Oc3ccc(C(F)(F)F)cn3)c2)CC1)c1ccc(-c2cc[nH]n2)nc1 (stereo not drawn)" numeric_readout=7.96
compound="O=C(NC1CCC(=Cc2cccc(Oc3ccc(C(F)(F)F)cn3)c2)CC1)c1cnc2[nH]ccc2c1 [Example 2.D-5]" numeric_readout=7.80
compound="CC(C)c1[nH]ncc1C(=O)NC1CCC(=Cc2cccc(Oc3ccc(C(F)(F)F)cn3)c2)CC1 (stereo not drawn)" numeric_readout=7.52
compound="O=C(NC1CCC(=Cc2cccc(Oc3ccc(C(F)(F)F)cn3)c2)CC1)c1c[nH]nc1C(F)(F)F (stereo not drawn) [Example 2.A-29]" numeric_readout=7.62
compound="Cc1n[nH]c(C)c1-c1ccc(C(=O)NC2CCC(=Cc3cccc(Oc4ccc(C(F)(F)F)cn4)c3)CC2)cn1 (stereo not drawn)" numeric_readout=7.28

###

This section presents compounds with their documented inhibition at 0.1 µM values.
# target under test: rat Fatty Acid Amide Hydrolase (FAAH) (Rattus norvegicus (Rat), UniProt P97612)
# Sequence (P97612 30-579): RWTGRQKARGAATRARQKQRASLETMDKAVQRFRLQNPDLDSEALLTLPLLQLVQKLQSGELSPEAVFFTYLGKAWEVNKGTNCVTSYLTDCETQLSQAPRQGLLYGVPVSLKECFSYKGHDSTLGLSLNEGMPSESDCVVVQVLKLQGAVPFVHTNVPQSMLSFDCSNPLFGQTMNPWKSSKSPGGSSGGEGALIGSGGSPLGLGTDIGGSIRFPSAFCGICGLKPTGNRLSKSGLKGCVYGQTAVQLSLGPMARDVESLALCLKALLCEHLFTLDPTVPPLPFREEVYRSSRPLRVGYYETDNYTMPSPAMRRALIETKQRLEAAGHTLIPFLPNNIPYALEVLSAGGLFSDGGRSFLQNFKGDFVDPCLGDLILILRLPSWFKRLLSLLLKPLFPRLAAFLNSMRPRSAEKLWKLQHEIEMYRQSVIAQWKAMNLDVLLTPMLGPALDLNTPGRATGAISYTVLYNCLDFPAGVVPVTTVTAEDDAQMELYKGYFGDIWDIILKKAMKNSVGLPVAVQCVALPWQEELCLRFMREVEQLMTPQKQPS
# assay: FAAH in vitro fluorescence assay (AAMCA hydrolysis), rat enzyme
# Format: biochemical
# assay context: read-out: rFAAH % inhibition at 100 nM; rat FAAH; 100 nM (tier I)
property measured: inhibition at 0.1 µM (%)

compound="O=C(NC1CCC(=Cc2cccc(Oc3ccc(C(F)(F)F)cn3)c2)CC1)c1ccc(-n2ccc(C(=O)O)n2)nc1 (stereo not shown)" property_measured="inhibition at 0.1 µM" numeric_readout=55
compound="O=C(NC1CCC(=Cc2cccc(Oc3ccc(C(F)(F)F)cn3)c2)CC1)c1ccncc1 (stereo not shown)" property_measured="inhibition at 0.1 µM" numeric_readout=14
compound="O=C(O)Cn1cc(-c2ccc(C(=O)NC3CCC(=Cc4cccc(Oc5ccc(C(F)(F)F)cn5)c4)CC3)cn2)cn1 (stereo not shown)" property_measured="inhibition at 0.1 µM" numeric_readout=15
compound="O=C(NC1CCC(=Cc2cccc(Oc3ccc(C(F)(F)F)cn3)c2)CC1)c1ccc(F)nc1 (stereo not shown)" property_measured="inhibition at 0.1 µM" numeric_readout=25

###

# target under test: UniProtKB P97612
# assay: FAAH in vitro fluorescence assay (AAMCA hydrolysis), rat enzyme
# Assay type: biochemical
# assay context: read-out: rFAAH % inhibition at 10 uM; rat FAAH; 10 uM
# Description: Material and Reagents: All reagents were purchased from Sigma-Aldrich unless specified. […] The assay was carried out in 200 μL volume in a 96-well black polystyrene plate (Greiner Bio-one, Germany). […] The reaction was incubated with 2 μL of varying concentrations of inhibitor in DMSO (final concentration of DMSO 1%) with shaking for 1 min and monitored for increase in fluorescence in kinetic mode for 50 min. […] Data was analyzed using GraphPad Prism 5 (GraphPad Software Inc., San Diego, Calif.). […]
This section presents molecules with their documented inhibition at 10 µM values.
property measured: inhibition at 10 µM (%)

molecule="O=C(NC1CCC(=Cc2cccc(Oc3ccc(C(F)(F)F)cn3)c2)CC1)c1c[nH]nc1C(F)(F)F (single isomer, unassigned; (+)) [Example 20.A-7]" numeric_readout=85
molecule="O=C(NC1CCC(=Cc2cccc(Oc3ccc(C(F)(F)F)cn3)c2)CC1)c1cccnc1 (single isomer, unassigned; (+)) [Example 20.A-1]" numeric_readout=60
molecule="O=C(NC1CCC(=Cc2cccc(Oc3ccc(C(F)(F)F)cn3)c2)CC1)c1cn[nH]c1 (single isomer, unassigned; (+)) [Example 20.A-11]" numeric_readout=86
molecule="Nc1ccc(C(=O)NC2CCC(=Cc3cccc(Oc4ccc(C(F)(F)F)cn4)c3)CC2)cn1 (single isomer, unassigned; (+)) [Example 20.A-3]" numeric_readout=70
molecule="O=C(NC1CCC(=Cc2cccc(Oc3ccc(C(F)(F)F)cn3)c2)CC1)c1c[nH]c2ccccc12 (single isomer, unassigned; (+)) [Example 20.A-17]" numeric_readout=90

###

This section presents molecules with their documented IC50 values.
# target under test: UniProt:O00519
# Sequence (O00519 30-579): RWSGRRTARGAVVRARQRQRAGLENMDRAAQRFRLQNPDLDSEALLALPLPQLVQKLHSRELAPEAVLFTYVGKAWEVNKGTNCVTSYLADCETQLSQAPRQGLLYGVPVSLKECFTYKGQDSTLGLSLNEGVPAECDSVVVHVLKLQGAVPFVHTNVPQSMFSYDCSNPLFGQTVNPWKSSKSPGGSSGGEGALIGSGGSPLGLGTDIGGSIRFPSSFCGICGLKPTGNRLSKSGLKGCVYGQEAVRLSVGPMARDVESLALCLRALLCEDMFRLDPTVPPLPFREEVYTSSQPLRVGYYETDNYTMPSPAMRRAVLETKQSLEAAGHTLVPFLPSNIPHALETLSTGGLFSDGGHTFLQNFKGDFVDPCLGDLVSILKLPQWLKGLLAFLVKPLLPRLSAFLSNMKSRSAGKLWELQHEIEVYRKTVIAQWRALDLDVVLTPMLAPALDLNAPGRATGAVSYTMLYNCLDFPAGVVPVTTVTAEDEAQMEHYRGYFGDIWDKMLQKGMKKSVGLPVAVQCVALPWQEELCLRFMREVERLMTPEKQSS
# assay: biochemical
# assay context: read-out: hFAAH IC50
property measured: IC50 (nM)

molecule="O=C(NC1CCC(=Cc2cccc(Oc3ccc(C(F)(F)F)cn3)c2)CC1)c1cccnc1Cl (centres unmarked) [Example 2.A-25]" property_measured=IC50 numeric_readout=16
molecule="O=C(NC1CCC(=Cc2cccc(Oc3ccc(C(F)(F)F)cn3)c2)CC1)c1ccc(-n2cccn2)nc1 (centres unmarked) [Example 5.A-6]" property_measured=IC50 numeric_readout=7
molecule="O=C(NC1CCC(=Cc2cccc(Oc3ccc(C(F)(F)F)cn3)c2)CC1)c1c[nH]c2ccccc12 (single isomer, unassigned; (+)) [Example 20.A-17]" property_measured=IC50 numeric_readout=155
molecule="O=C(NC1CCC(=Cc2cccc(Oc3ccc(C(F)(F)F)cn3)c2)CC1)c1cnc2[nH]ccc2c1 (single isomer, unassigned; (-)) [Example 20.A-14]" property_measured=IC50 numeric_readout=1
molecule="Cc1ccc(C(=O)NC2CCC(=Cc3cccc(Oc4ccc(C(F)(F)F)cn4)c3)CC2)cn1 (centres unmarked) [Example 2.2]" property_measured=IC50 numeric_readout=5
molecule="Nc1ncc(C(=O)NC2CCC(=Cc3cccc(Oc4ccc(C(F)(F)F)cn4)c3)CC2)cn1 (single isomer, unassigned; (-)) [Example 20.A-10]" property_measured=IC50 numeric_readout=0.6
molecule="O=C(NC1CCC(=Cc2cccc(Oc3ccc(C(F)(F)F)cn3)c2)CC1)c1cnc2[nH]ccc2c1 (single isomer, unassigned; (+)) [Example 20.A-13]" property_measured=IC50 numeric_readout=55
molecule="O=C(NC1CCC(=Cc2cccc(Oc3ccc(C(F)(F)F)cn3)c2)CC1)c1c[nH]nc1C(F)(F)F (single isomer, unassigned; (-)) [Example 20.A-8]" property_measured=IC50 numeric_readout=1
molecule="O=C(NC1CCC(=Cc2cccc(Oc3ccc(C(F)(F)F)cn3)c2)CC1)c1c[nH]c2ccccc12 [Example 2.D-6]" property_measured=IC50 numeric_readout=10
molecule="O=C(NC1CCC(=Cc2cccc(Oc3ccc(C(F)(F)F)cn3)c2)CC1)c1cccnc1F (centres unmarked) [Example 2.A-26]" property_measured=IC50 numeric_readout=5
molecule="O=C(NC1CCC(=Cc2cccc(Oc3ccc(C(F)(F)F)cn3)c2)CC1)c1c[nH]nc1C(F)(F)F (centres unmarked) [Example 2.A-29]" property_measured=IC50 numeric_readout=3
molecule="Cc1n[nH]c(C)c1C(=O)NC1CCC(=Cc2cccc(Oc3ccc(C(F)(F)F)cn3)c2)CC1 (centres unmarked) [Example 2.A-35]" property_measured=IC50 numeric_readout=29
molecule="O=C(NC1CCC(=Cc2cccc(Oc3ccc(C(F)(F)F)cn3)c2)CC1)c1ccc(F)nc1 (centres unmarked) [Example 2.A-14]" property_measured=IC50 numeric_readout=10
molecule="COc1ccc(C(=O)NC2CCC(=Cc3cccc(Oc4ccc(C(F)(F)F)cn4)c3)CC2)cn1 (centres unmarked) [Example 2.C-2]" property_measured=IC50 numeric_readout=5
